Source of measurements: ChEMBL document CHEMBL1938244

System: MCF7
Test: Anticancer activity against human MCF7 cells by SRB method
Type: functional
MEASURE NAME: GI50 (nM)
I only need the number, in nM, no unit after it.

>>> result_value("COc1cc2c(cc1OCCCCCCOc1cccc(C(c3c[nH]c4ccccc34)c3c[nH]c4ccccc34)c1)N=C[C@@H]1CCCN1C2=O")
2010
>>> result_value("COc1cc2c(cc1OCCCCCOc1cccc(C(c3c[nH]c4ccccc34)c3c[nH]c4ccccc34)c1)N=C[C@@H]1CCCN1C2=O")
190
>>> result_value("COc1cc2c(cc1OCCCCCOc1ccc(C(c3c[nH]c4ccccc34)c3c[nH]c4ccccc34)cc1)N=C[C@@H]1CCCN1C2=O")
140

stdin: Can you share its GI50? I mean this compound: `COc1cc2c(cc1OCCCCOc1cccc(C(c3c[nH]c4ccccc34)c3c[nH]c4ccccc34)c1)N=C[C@@H]1CCCN1C2=O`
stdout: 2010

stdin: I'd like to know its GI50. The compound in question is `COc1cc2c(cc1OCCCCCCOc1ccc(C(c3c[nH]c4ccccc34)c3c[nH]c4ccccc34)cc1)N=C[C@@H]1CCCN1C2=O`
stdout: 140

stdin: State the recorded GI50 for this entry: `COc1cc2c(cc1O)N=C[C@@H]1CCCN1C2=O`
stdout: 170

stdin: Find the recorded GI50 belonging to `COc1cc2c(cc1OCCCCOc1ccc(C(c3c[nH]c4ccccc34)c3c[nH]c4ccccc34)cc1)N=C[C@@H]1CCCN1C2=O` and report it.
stdout: 180

* * *

System: MCF7
Assay: Induction of cell cycle arrest in human MCF7 cells assessed as accumulation of cells in G0 phase at 4 uM after 24 hrs by flow cytometry (reference value: 3.22%)
Assay type: functional
MEASURE NAME: Activity
Don't forget the unit after the value.

# annotated cases, reported Activity shown
>>> result_value("COc1cc2c(cc1OCCCCCOc1cccc(C(c3c[nH]c4ccccc34)c3c[nH]c4ccccc34)c1)N=C[C@@H]1CCCN1C2=O")
"10.4%"
>>> result_value("COc1cc2c(cc1O)N=C[C@@H]1CCCN1C2=O")
"9.56%"
>>> result_value("COc1cc2c(cc1OCCCCCOc1ccc(C(c3c[nH]c4ccccc34)c3c[nH]c4ccccc34)cc1)N=C[C@@H]1CCCN1C2=O")
"16.45%"
>>> result_value("Oc1ccc(C(c2c[nH]c3ccccc23)c2c[nH]c3ccccc23)cc1")
"5%"

stdin: Report Activity for `Oc1cccc(C(c2c[nH]c3ccccc23)c2c[nH]c3ccccc23)c1` please.
stdout: 4%

* * *

System: MCF7
Assay: Induction of cell cycle arrest in human MCF7 cells assessed as accumulation of cells in G0 phase at 8 uM after 24 hrs by flow cytometry relative to untreated control
Format: functional
MEASURE NAME: Activity (%)
Express it in %; write the number only.

>>> result_value("Oc1cccc(C(c2c[nH]c3ccccc23)c2c[nH]c3ccccc23)c1")
6.03
>>> result_value("COc1cc2c(cc1O)N=C[C@@H]1CCCN1C2=O")
29.68
>>> result_value("COc1cc2c(cc1OCCCCCOc1cccc(C(c3c[nH]c4ccccc34)c3c[nH]c4ccccc34)c1)N=C[C@@H]1CCCN1C2=O")
24.81
>>> result_value("COc1cc2c(cc1OCCCCCOc1ccc(C(c3c[nH]c4ccccc34)c3c[nH]c4ccccc34)cc1)N=C[C@@H]1CCCN1C2=O")
50.15

stdin: Fill in the blank: the reported Activity of `Oc1ccc(C(c2c[nH]c3ccccc23)c2c[nH]c3ccccc23)cc1` is ____.
stdout: 7.05
